- TESTED_TARGET: Inositol hexakisphosphate kinase 1 (Homo sapiens) (UniProt Q92551)
- Sequence (Q92551 whole entry, looked up): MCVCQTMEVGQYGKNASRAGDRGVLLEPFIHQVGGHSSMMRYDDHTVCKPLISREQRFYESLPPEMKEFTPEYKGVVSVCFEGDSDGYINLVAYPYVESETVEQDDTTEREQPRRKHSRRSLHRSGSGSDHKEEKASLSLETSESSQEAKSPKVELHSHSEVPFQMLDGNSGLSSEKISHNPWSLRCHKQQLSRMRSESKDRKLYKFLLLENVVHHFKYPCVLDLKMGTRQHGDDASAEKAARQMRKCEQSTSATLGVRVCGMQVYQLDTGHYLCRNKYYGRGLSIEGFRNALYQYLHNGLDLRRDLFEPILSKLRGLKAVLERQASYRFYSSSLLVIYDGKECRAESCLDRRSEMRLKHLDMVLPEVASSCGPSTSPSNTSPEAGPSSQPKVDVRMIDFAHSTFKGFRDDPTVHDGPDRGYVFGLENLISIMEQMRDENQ
- MEASUREMENT_NOTES: Primary qHTS assay for small molecule inhibitors of Inositol hexaphosphate kinase 1 (IP6K1); also: series mostly up to about 58 µM
- TEST_CONTEXT: ADP-Glo luminescence, 2 h
Hit rate of the full screen: of about 140,000 compounds, about 1,200 (0.86%) were called active. Rule as the data show it: active = activity change below about -25%; inactive = the rest. This is one part of a sample in which actives are shown more often than they occur.
Respond using exactly one of the listed classes: active, inactive

**Q:** Tell me the recorded outcome of this test for O=C(Nc1cccnc1)[C@@H]1C[C@@H](c2ccc(F)cc2)N([S+](=O)([O-])c2ccccc2)C1 .
**A:** inactive

**Q:** Tell me the recorded outcome of this test for Cc1oc(C(O)c2ccccc2)nc1C(=O)Nc1ccc2c(c1)CC(=O)N2 (stereo not drawn) .
**A:** inactive

**Q:** Tell me the recorded outcome of this test for O=C(NC1CCN(Cc2ccccc2)CC1)c1ccc(Cn2c(=O)c3ccccc3n(Cc3cccc(F)c3)c2=O)cc1 .
**A:** inactive

**Q:** Tell me the recorded outcome of this test for COC(=O)[C@H](NC(=O)[C@@H]1C[C@H](NC(=O)Nc2ccc(F)cc2F)CN1C(C)=O)C(C)C .
**A:** inactive

**Q:** Tell me the recorded outcome of this test for O=C(CN1C(=O)c2cccnc2Oc2ccc(Cl)cc21)NCCc1ccccc1 .
**A:** inactive

**Q:** Tell me the recorded outcome of this test for CCOc1ccccc1CNC(=O)C1CCCN(S(=O)(=O)c2ccc3c(ccn3C)c2)C1 (stereo not drawn) .
**A:** inactive

**Q:** Tell me the recorded outcome of this test for CN(c1ccccc1)c1cc(=O)c2ccnc(NC3CCOCC3)c2o1 .
**A:** active

**Q:** Tell me the recorded outcome of this test for Cc1cn2nc(C(=O)Nc3cc(F)cc(F)c3)cc2c(N(C)Cc2ccccc2)n1 .
**A:** inactive

**Q:** Tell me the recorded outcome of this test for CCC(=O)Nc1cccc(-c2nc3cc(C)ccc3o2)c1 .
**A:** active

**Q:** Tell me the recorded outcome of this test for Cn1nc(C2CCCN(C(=O)NCc3ccccc3)C2)n(Cc2ccccc2)c1=O (stereo not drawn) .
**A:** inactive

**Q:** Tell me the recorded outcome of this test for CN(c1ccccc1)c1cc(=O)c2ccnc(-c3ccc(CO)cc3)c2o1 .
**A:** inactive

**Q:** Tell me the recorded outcome of this test for CN(CC1CCN(CCc2cccc(F)c2)CC1)C(=O)c1cn2cccnc2n1 .
**A:** inactive

**Q:** Tell me the recorded outcome of this test for O=C(c1ccccc1Cl)N1CCN(C(=O)c2nc3cccnc3n(Cc3ccccc3)c2=O)CC1 .
**A:** inactive

**Q:** Tell me the recorded outcome of this test for Cc1ccc2c(c1)N(CC(=O)NCCc1ccc(Cl)cc1)C(=O)c1cccnc1O2 .
**A:** inactive

**Q:** Tell me the recorded outcome of this test for COc1ccc(C2Cn3nnc(C(=O)N4CCN(C(=O)c5ccc(C)cc5C)CC4)c3CO2)cc1 (stereo not drawn) .
**A:** active

**Q:** Tell me the recorded outcome of this test for COc1ccccc1-c1ccc(CN2CCC(NC(=O)c3ccncc3)C2)cc1 (stereo not drawn) .
**A:** inactive

**Q:** Tell me the recorded outcome of this test for CC(C)CCNC(=O)c1cnc2c(c1)N(Cc1ccccc1)CCC2 .
**A:** inactive

**Q:** Tell me the recorded outcome of this test for CN1C(=O)CC(c2ccccc2)C1=O (stereo not drawn) .
**A:** inactive
